Here, molecules appear alongside log10(IC50) reported for Melanocortin receptor 4 (Homo sapiens, UniProt P32245) in the literature.
Readout kind: log10(IC50) (log10 of the value in nM)

molecule=CS(=O)(=O)N(CC1CC1)c1ccccc1N1CCN(C(=O)[C@@H](Cc2ccc(Cl)cc2)NC(=O)[C@@H]2Cc3ccccc3CN2)CC1 reported=1.79
molecule=N#CCC1(C2CCCC2)CCN(C(=O)[C@H](Cc2ccc(Cl)cc2)NC(=O)[C@H]2Cc3ccccc3CN2)CC1 reported=1.21
molecule=CN1CCN[C@@H](C(=O)N[C@@H](Cc2ccc(F)cc2)C(=O)N2CCC(CC3CCC3)(C(=O)NC(C)(C)C)CC2)C1 reported=2.25
molecule=CS(=O)(=O)N(CCN)c1ccccc1N1CCN(C(=O)[C@@H](Cc2ccc(Cl)cc2)NC(=O)[C@@H]2Cc3ccccc3CN2)CC1 reported=1.54
molecule=CS(=O)(=O)N(CC1CC1)c1ccccc1N1CCN(C(=O)[C@@H](Cc2ccc(Cl)cc2)NC(=O)c2cnc3ccccc3c2)CC1 reported=1.97
molecule="Cc1cc2c(cc1Cl)C1(CCN(C(=O)[C@@H]3CN(C(C)(C)C)C[C@H]3c3ccc(F)cc3F)CC1)CC2C(C)(C)c1nnco1 (stereo in doubt; 5d2)" reported=0.11
